Origin of values: patent US9187467B2

- Test system: Ovarian cancer cell lines
- Protocol Text: SRB anticancer assay, panel result
- Type: cell-based, human
- Experimental Context: Homo sapiens; seven ovarian cancer cell lines; exposure at least 48 h; read-out: GI50, range over the panel

{"columns": ["Chemical Structure", "GI50"],
 "data": [
  ["COc1cc(OC)c2sc(-c3ccc(-n4cncc4-c4cc(OC)c(OC)c(OC)c4)cc3)nc2c1", "3.25 to 5.87 µM"],
  ["COc1cc(OC)cc(-c2cncn2-c2ccc(-c3nc4cc(OC)cc(OC)c4s3)cc2)c1", "2.87 to 14.5 µM"],
  ["COc1ccc(-c2cncn2-c2ccc(-c3nc4cc(OC)c(OC)c(OC)c4s3)cc2)cc1N", "3.12 to 6.29 µM"],
  ["COc1cc(OC)c2sc(-c3ccc(-n4cncc4-c4ccc(OC)c(OC)c4)cc3)nc2c1", "3.85 to 56.1 µM"],
  ["COc1cc(OC)cc(-c2cncn2-c2ccc(-c3nc4cc(OC)c(OC)c(OC)c4s3)cc2)c1", "6.07 to 49.9 µM"],
  ["COc1cc2nc(-c3ccc(-n4cncc4-c4ccc(N)cc4)cc3)sc2c(OC)c1OC", "1.61 to 34.3 µM"],
  ["COc1cc(-c2cncn2-c2ccc(-c3nc4ccc(F)cc4s3)cc2)ccc1F", "5.71 to 30.6 µM"]
]}

====

- Test system: CAKI-1
- Protocol Text: SRB anticancer assay, renal
- Type: cell-based, human
- Experimental Context: Homo sapiens, CAKI-1, 48 h
GI50 reference

{"columns": ["Chemical Structure", "Cmp", "GI50 [µM]"],
 "data": [
  ["COc1cc(OC)cc(-c2cncn2-c2ccc(-c3nc4cc(OC)cc(OC)c4s3)cc2)c1", "=", 2.13],
  ["COc1cc(OC)cc(-c2cncn2-c2ccc(-c3nc4cc(OC)c(OC)c(OC)c4s3)cc2)c1", "=", 3.79],
  ["COc1cc2nc(-c3ccc(-n4cncc4-c4ccc(N)cc4)cc3)sc2c(OC)c1OC", "=", 1.41],
  ["COc1ccc(-c2cncn2-c2ccc(-c3nc4cc(OC)c(OC)c(OC)c4s3)cc2)cc1N", "=", 4.82],
  ["COc1cc(-c2cncn2-c2ccc(-c3nc4ccc(F)cc4s3)cc2)ccc1F", ">", 100]
]}

====

- System: HOP-62
- Protocol Text: SRB anticancer assay, non-small lung
- Assay type: cell-based, human
- Experimental Context: Homo sapiens, HOP-62, 48 h
Entries and their measured GI50 follow.
Observed Property: GI50 (µM)

{"columns": ["Chemical Structure", "Units Text", "Recorded Result"],
 "data": [
  ["COc1cc(OC)c2sc(-c3ccc(-n4cncc4-c4cc(OC)c(OC)c(OC)c4)cc3)nc2c1", "µM", 75.9],
  ["COc1cc(OC)c2sc(-c3ccc(-n4cncc4-c4ccc(OC)c(OC)c4)cc3)nc2c1", "µM", 35.5],
  ["COc1cc(-c2cncn2-c2ccc(-c3nc4ccc(F)cc4s3)cc2)ccc1F", "µM", 40.7],
  ["COc1cc(OC)cc(-c2cncn2-c2ccc(-c3nc4cc(OC)c(OC)c(OC)c4s3)cc2)c1", "µM", 26.4],
  ["COc1cc(OC)cc(-c2cncn2-c2ccc(-c3nc4cc(OC)cc(OC)c4s3)cc2)c1", "µM", 6.65]
]}
